Species on record: Homo sapiens
Test: Selectivity for human A2B receptor over human A1 receptor
MEASUREMENT_KIND: Ratio Ki

Query :: Item under review: CC(C)Cn1c(=O)[nH]c2nc(-c3cnn(Cc4cccc(F)c4)c3)[nH]c2c1=O . Reported Ratio Ki?
Result :: > 250

Query :: // Ratio Ki lookup, key: CCCn1c(=O)[nH]c2nc(-c3cnn(Cc4cc(-c5ccccc5)on4)c3)[nH]c2c1=O
Result :: > 270

Query :: What value of measured Ratio Ki is listed for CCCCn1c(=O)[nH]c2nc(-c3cnn(Cc4noc(-c5ccc(Cl)cc5)n4)c3)[nH]c2c1=O ?
Result :: > 260

Query :: Which Ratio Ki value is on record for CCCCn1c(=O)[nH]c2nc(-c3cnn(Cc4cccc(C(F)(F)F)c4)c3)[nH]c2c1=O ?
Result :: > 200

Query :: Returns the measured Ratio Ki for the input compound. Input: O=c1[nH]c2nc(-c3cnn(Cc4cc(-c5ccc(C(F)(F)F)cc5)on4)c3)[nH]c2c(=O)n1CC1CC1
Result :: > 400
